- Test system: K4 kissing-loop RNA reporter;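 note: bound reporter read as fluorescence of individual clusters on recovered sequencing chips by microscopy, with normalized cluster intensities fitted with a binding model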
- Test method notes: apparent KD of K4 kissing-loop reporter; higher = weaker reporter binding
- Condition: Eterna round: R107; input ligand: FMN 200 uM
Observation type: apparent KD of K4 kissing-loop reporter (nM)
# number only, unit nM dropped from output

// solved cases for apparent KD of K4 kissing-loop reporter follow
Primary sequence: UGAUUGCCAGUGAUGUUGGCAGUUUCUGAAGGAGCGCGUGAAAACGCAGGUAGGUCGCAGAUUAGUGCCAAUUGAUCGAAAGAUC [KL-XArg-A4]
Unit: nM
apparent KD of K4 kissing-loop reporter: 208
--
Primary sequence: GGGUCAGUCUGAAGGAGCGGCCAGACAGAGCAGUGAUGUUGCUCCUCCGGAAACGGUGUCGGCCAGGUAGGUCGCAGAUUGGCUC [Dienralais mod v1]
Unit: nM
apparent KD of K4 kissing-loop reporter: 153
--
Primary sequence: UAGUAUAAUCUGUCGUUUACAAUAUUUAGUCAGGAUAUCGUAUAUUCGAGAAGGGACACUAUCUAGUGAUGUUAGAUAUUUCUUU [JR_ExcFMNA_Sub013]
Unit: nM
apparent KD of K4 kissing-loop reporter: 46.8
--
Primary sequence: CGGAUGUAGUGAUGUUAUAUUAGAUGUAGACGAGGACCGGUACGGCCGCCACUCGUGAUGGCUGCUAGCGCGUUGCGAGGUUUGC [ExTryptoA.Co]
Unit: nM
apparent KD of K4 kissing-loop reporter: 408
--
Primary sequence: UUGAGUGAUGUUCAAUUAAUGUGCAACGAUACCAGCUCAUAUGCUAGCCCUUGGCAGCGUGGUAACGUAAUUUUAUCAAAUGAUA [theeternabot_exclusion_KL_Theo_A_39]
Unit: nM
apparent KD of K4 kissing-loop reporter: 232

Kindly note the recorded apparent KD of K4 kissing-loop reporter for AGAGUACGAAAGUACUCCUCUACACACUGACGAGGACCGGUACGGCCGCCACUCGAGUUGAGUGAUGUUCGACAGUGUGUAGAGA [Omei KL Tryp A SS C v1] , which is 120

Memo: UGAUACCAGGCGGCCGCCACUCCUACAGGUCAAAGACCUGUAGAACUGGUUUUUUAGUGAUGUUGGAGGACCGGGCCUGGUAUCU [FiskerMod 30 - Jieux - Exclusion - Tryptophan B] , reported apparent KD of K4 kissing-loop reporter: 698

// apparent KD of K4 kissing-loop reporter lookup, sequence = GGAGUUACCUGGGAUACCAGUCGGAGUCCUAGAGCUCGGAGUGAUGUUCUGGGAUGUUUCGGCCCUUGGCAGCUCUGGGACUCCC [#2 Exclusion - Theophylline B Attempt #11 (HarryS)] , result: 615

According to the records, this sequence UUUCGUUGAAGUGAUACCAGACUUGAAAGUGAUGUUUUCCAAUAAUUUAAAUUUUUAGCUGUCCCUUGGCAGCACAGUUUAUUUA [JR_Nu_ExcTheophyB_Sub025] displays apparent KD of K4 kissing-loop reporter of 210

# sequence AUCAUUGAGUGAUGUUCAAUGGGUUUUCCCAAGGAUAUUCGGAGCUGAAGAAGGUGGCCCUCGAUAUCAGUAUCAACCUGAAAGC [theeternabot_exclusion_KL_FMN_A_11] ; its apparent KD of K4 kissing-loop reporter = 360

# sequence AGAUUCGACACGGCCGCCACUUCCAGUGGCUGGUGUCAUGGUGCACGUGAGUGAUGUUUAUGUGGAAGGACCGGGUGUUGAGUCU [KL-XTryp-B2 #analogue] ; its apparent KD of K4 kissing-loop reporter = 652
